# Measured on: UniProt:P08581
# Test details: Met kinase inhibition, flashplate method (enzyme)
# Assay type: biochemical
# Parameters: 6His (N); purchased Upstate 14-526; host or cells: Sf21 insect cells (S. frugiperda), baculovirus
# Sequence (P08581 974-1390 limits assumed): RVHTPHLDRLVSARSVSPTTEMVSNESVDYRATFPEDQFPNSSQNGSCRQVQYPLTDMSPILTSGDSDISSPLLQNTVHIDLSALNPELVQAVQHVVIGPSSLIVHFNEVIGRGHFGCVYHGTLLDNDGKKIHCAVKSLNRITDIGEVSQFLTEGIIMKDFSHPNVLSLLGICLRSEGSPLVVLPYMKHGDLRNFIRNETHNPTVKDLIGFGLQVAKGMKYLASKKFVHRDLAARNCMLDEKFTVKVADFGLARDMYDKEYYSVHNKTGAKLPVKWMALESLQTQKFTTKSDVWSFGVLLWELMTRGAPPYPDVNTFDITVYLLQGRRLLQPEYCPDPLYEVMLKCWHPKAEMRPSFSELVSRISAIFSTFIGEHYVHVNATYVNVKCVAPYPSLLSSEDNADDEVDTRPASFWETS
pIC50: −log10 of the molar value.
Endpoint label: pIC50

Data request: Given Cc1ccc(-c2cccc(Cn3nc(-c4cc(F)cc(F)c4)ccc3=O)n2)nc1 , state its recorded pIC50.
Data returned: 6.00 to 8.00

====

# Measured on: Met kinase (Homo sapiens, UniProt P08581)
# Test details: Met kinase inhibition (cell)
# Format: cell-based
# Sequence (P08581 25-1390): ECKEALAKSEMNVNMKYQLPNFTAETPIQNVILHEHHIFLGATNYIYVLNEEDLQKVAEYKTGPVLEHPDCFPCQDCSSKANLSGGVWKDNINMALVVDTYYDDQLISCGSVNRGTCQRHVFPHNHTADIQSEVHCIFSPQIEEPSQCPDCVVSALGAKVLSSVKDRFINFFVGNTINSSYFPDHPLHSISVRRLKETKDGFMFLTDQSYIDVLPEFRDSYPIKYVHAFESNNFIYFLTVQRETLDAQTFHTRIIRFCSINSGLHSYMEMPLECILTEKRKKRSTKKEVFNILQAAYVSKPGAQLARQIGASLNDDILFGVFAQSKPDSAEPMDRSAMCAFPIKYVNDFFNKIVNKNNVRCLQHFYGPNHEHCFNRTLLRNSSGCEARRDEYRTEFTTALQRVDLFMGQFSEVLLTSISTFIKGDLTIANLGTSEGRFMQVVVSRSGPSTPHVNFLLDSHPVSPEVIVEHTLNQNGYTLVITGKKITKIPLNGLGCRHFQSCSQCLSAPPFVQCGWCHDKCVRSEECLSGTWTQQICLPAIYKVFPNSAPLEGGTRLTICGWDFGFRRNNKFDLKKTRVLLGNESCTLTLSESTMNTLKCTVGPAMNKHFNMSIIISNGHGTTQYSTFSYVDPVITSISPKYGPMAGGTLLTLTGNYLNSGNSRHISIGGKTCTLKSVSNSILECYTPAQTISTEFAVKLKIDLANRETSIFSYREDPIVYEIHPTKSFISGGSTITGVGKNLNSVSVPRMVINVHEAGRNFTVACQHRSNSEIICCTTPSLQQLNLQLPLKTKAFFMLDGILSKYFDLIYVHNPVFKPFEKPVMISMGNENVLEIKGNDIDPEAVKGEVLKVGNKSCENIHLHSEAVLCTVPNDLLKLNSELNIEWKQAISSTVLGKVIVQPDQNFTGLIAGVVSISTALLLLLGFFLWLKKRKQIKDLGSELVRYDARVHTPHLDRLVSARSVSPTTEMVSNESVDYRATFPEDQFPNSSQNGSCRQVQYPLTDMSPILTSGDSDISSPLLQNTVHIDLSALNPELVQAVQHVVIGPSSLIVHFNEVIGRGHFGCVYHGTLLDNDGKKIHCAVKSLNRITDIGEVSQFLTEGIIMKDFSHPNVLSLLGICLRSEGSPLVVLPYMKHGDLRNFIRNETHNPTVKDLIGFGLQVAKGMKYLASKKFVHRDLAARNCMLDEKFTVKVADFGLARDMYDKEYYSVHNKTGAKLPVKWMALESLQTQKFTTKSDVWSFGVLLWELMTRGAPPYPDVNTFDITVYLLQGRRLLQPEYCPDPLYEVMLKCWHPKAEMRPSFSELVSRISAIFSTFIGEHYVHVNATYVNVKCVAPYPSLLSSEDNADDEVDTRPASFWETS
pIC50: −log10 of the molar value.
pIC50 overview

1. Cc1ccc(-c2cccc(Cn3nc(-c4cc(F)cc(F)c4)ccc3=O)n2)nc1: 5.00 to 6.00

Please find the next molecule below.
Data request: Given N#Cc1cccc(-c2ccc(=O)n(Cc3cccc(-c4ncc(-c5cnn(CCN6CCCC6)c5)cn4)n3)n2)c1 , state its recorded pIC50.
Data returned: 6.00 to 8.00
